Hi there, I'd appreciate the recorded Lysis for every entry that follows.
Test: Percentage platelet cell lysis at 33 uM measured by turbidimetry.
Format: functional, Bos taurus
Answers are plain numbers, in %.

The cases that follow already have their Lysis on record.
CCCCCCCCCCCCCCCCCC(=O)c1c(C)c(CCC(=O)O)n(CCCCCC(=O)O)c1C : 54
CCCCCCCCCCCCCCCCCC(=O)c1c(C)c(CCC(=O)O)n(CCCCCCO)c1C : 0
CCCCCCCCCCCC(=O)c1c(C)c(CC(=O)O)n(C)c1C : 0
CCCCCCCCCCCCCCCCCC(=O)c1c(C)c(CC(=O)O)n(CCC)c1C : 34
CCCCCCCCCCCCCCCCCC(=O)c1c(C)c(CCC(=O)O)n(C)c1C : 0
CCCCCCCCCCCC(=O)c1c(C)c(CC(=O)O)n(CCCCCC(=O)O)c1C : 0

For every item below, please supply its Lysis.
1. CCCCCCCCCCCCCCCCCC(=O)c1c(C)c(CCC(=O)O)n(CCCCC)c1C
2. CCCCCCCCCCCC(=O)c1c(C)c(CCC(=O)O)n(C)c1C
3. CCCCCCCCCCCCCCCCCC(=O)c1c(C)c(CC(=O)O)n(CC)c1C
4. CCCCCCCCCCCCCCCCCC(=O)c1c(C)c(CC(=O)O)n(CCCCCCC)c1C

13
0
10
19

====

Hi there, I'd appreciate the recorded IC50 for every entry that follows.
Biological target: Cytosolic phospholipase A2 (Bos taurus, UniProt A4IFJ5)
Sequence (A4IFJ5 whole entry): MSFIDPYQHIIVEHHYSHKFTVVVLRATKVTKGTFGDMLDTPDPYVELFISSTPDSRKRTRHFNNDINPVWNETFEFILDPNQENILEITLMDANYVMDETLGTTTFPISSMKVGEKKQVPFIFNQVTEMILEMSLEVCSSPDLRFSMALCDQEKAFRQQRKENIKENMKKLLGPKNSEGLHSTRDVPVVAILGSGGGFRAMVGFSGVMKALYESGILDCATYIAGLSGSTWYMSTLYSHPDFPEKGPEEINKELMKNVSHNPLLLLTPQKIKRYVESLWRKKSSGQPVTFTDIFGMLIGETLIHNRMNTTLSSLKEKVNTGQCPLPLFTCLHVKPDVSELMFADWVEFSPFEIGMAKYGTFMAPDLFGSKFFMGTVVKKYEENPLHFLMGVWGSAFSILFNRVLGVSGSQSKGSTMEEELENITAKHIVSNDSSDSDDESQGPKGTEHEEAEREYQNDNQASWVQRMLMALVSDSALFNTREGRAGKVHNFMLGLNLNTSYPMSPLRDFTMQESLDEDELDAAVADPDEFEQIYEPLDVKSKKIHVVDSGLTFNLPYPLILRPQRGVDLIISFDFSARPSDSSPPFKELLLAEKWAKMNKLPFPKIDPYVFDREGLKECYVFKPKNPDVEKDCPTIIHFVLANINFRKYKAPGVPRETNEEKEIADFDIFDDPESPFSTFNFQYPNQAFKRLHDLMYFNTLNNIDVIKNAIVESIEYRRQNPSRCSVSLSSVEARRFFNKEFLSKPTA
Assay: Inhibition of cPLA2 measuring Calcium ionophore A-23,187-induced arachidonic acid release from bovine platelets with HPLC/UV detection.
Type: functional
Details: read-out: IC50
One number for each entry, in µM.

The cases that follow already have their IC50 on record.
CCCCCCCCCCCCCCCCCC(=O)c1c(C)c(CCC(=O)O)n(CCCCC)c1C : 10
CCCCCCCCCCCCCCCCCC(=O)c1cc(CC(=O)O)n(C)c1 : 15
CCCCCCCCCCCCCCCCCC(=O)c1c(C)c(CCC(=O)O)n(CC)c1C : 11
CCCCCCCCCCCCCCCCCC(=O)c1c(C)c(CC(=O)O)n(CC)c1C : 9
CCCCCCCCCCCCCCCCCC(=O)c1c(C)c(CCC(=O)O)n(CCC)c1C : 11

For every item below, please supply its IC50.
1. CCCCCCCCCCCCCCCCCC(=O)c1c(C)c(CCC(=O)O)n(Cc2ccccc2)c1C
2. CCCCCCCCCCCCCCCCCC(=O)c1c(C)c(CC(=O)O)n(CCC)c1C
3. CCCCCCCCCCCCCCCCCC(=O)c1cc(CCC(=O)O)n(C)c1
4. CCCCCCCCCCCCCCCCCC(=O)c1c(C)c(CC(=O)O)n(Cc2ccccc2)c1C

12
8
14
7

For every item below, please supply its IC50.
1. CCCCCCCCCCCCCCCCCC(=O)c1c(Cc2ccccc2)c(CC(=O)O)n(C)c1C
2. CCCCCCCCCCCCCCCCCC(=O)c1c(C)c(CC(=O)O)n(C)c1C
3. CCCCCCCCCCCCCCCCCC(=O)c1c(C)c(CCC(=O)O)n(C)c1C
4. CCCCCCCCCCCCCCCCCC(=O)c1c(C)c(CC(=O)O)n(C)c1Cc1ccccc1
5. CCCCCCCCCCCCCCCCNC(=O)[C@@H]1CCCN1
6. CCCCCCCCCCCCCCCCCC(=O)c1c(C)c(CC(=O)O)n(Cc2ccc(C)cc2)c1C

[10, 10, 13, 12, 13, 9]
